Each recorded value in this set is attributed to the supplement of paper PMC7877785.

# test: self-splicing fitness, log relative to wild type (ln ratio); higher = more splicing; Tetrahymena group I intron in knt gene, E. coli kanamycin selection, DiMSum; sequences stand for … in CUCUCU…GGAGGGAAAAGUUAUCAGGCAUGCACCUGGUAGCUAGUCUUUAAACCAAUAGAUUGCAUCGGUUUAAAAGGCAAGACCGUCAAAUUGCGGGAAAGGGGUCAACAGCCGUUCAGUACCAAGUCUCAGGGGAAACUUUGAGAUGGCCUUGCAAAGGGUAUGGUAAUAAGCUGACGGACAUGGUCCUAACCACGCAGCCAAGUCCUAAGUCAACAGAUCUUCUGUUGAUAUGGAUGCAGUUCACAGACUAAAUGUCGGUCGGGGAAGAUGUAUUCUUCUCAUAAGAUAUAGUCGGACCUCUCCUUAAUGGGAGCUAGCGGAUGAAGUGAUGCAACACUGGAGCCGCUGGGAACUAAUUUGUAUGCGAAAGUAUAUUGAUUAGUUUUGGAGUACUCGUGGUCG;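 note: selection with 25 µg/mL kanamycin versus none on LB agar overnight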
# test_conditions: 37 °C
reported_endpoint: self-splicing fitness (ln)

sequence_text: AAGAAGCAAUAUUACGGCGU
reported_endpoint: self-splicing fitness (ln)
result_value: 0.334

sequence_text: CCCUAGCAAUAUUACGGCGC
reported_endpoint: self-splicing fitness (ln)
result_value: -3.28

sequence_text: AUGGAGCAAUAUUACGCUGG
reported_endpoint: self-splicing fitness (ln)
result_value: -1.53

sequence_text: ACAGAGCAAUAUUACGACAU
reported_endpoint: self-splicing fitness (ln)
result_value: -2.17

sequence_text: GGGGAGCAAUAUUACGUAAU
reported_endpoint: self-splicing fitness (ln)
result_value: -0.557

sequence_text: UCGUAGCAAUAUUACGGGUG
reported_endpoint: self-splicing fitness (ln)
result_value: -2.66

sequence_text: UCCAAGCAAUAUUACGUGAA
reported_endpoint: self-splicing fitness (ln)
result_value: 0.295

sequence_text: UCCCAGCAAUAUUACGACCU
reported_endpoint: self-splicing fitness (ln)
result_value: -1.69

sequence_text: GGAAAGCAAUAUUACGGGGC
reported_endpoint: self-splicing fitness (ln)
result_value: -0.864

sequence_text: CCUUAGCAAUAUUACGUUUC
reported_endpoint: self-splicing fitness (ln)
result_value: -1.11

sequence_text: CCACAGCAAUAUUACGGCAU
reported_endpoint: self-splicing fitness (ln)
result_value: -2.54

sequence_text: ACGGAGCAAUAUUACGGCUG
reported_endpoint: self-splicing fitness (ln)
result_value: -1.26

sequence_text: AGGAAGCAAUAUUACGCCUG
reported_endpoint: self-splicing fitness (ln)
result_value: 0.257

sequence_text: UUCAAGCAAUAUUACGAAUA
reported_endpoint: self-splicing fitness (ln)
result_value: -0.837

sequence_text: AAUAAGCAAUAUUACGGAAG
reported_endpoint: self-splicing fitness (ln)
result_value: -1.86

sequence_text: CGUCAGCAAUAUUACGUUGG
reported_endpoint: self-splicing fitness (ln)
result_value: -2.78

sequence_text: UAUCAGCAAUAUUACGACAC
reported_endpoint: self-splicing fitness (ln)
result_value: 0.634

sequence_text: GAUGAGCAAUAUUACGGUUG
reported_endpoint: self-splicing fitness (ln)
result_value: -2.22

sequence_text: GCACAGCAAUAUUACGUUCU
reported_endpoint: self-splicing fitness (ln)
result_value: -0.524

sequence_text: GUUGAGCAAUAUUACGGUGA
reported_endpoint: self-splicing fitness (ln)
result_value: -2.78

sequence_text: AAUGAGCAAUAUUACGUCAC
reported_endpoint: self-splicing fitness (ln)
result_value: -1.92
